# assay.target: full-length human PRMT8 isoform 1 (Homo sapiens, UniProt Q9NR22)
# Sequence (Q9NR22 whole entry, canonical isoform): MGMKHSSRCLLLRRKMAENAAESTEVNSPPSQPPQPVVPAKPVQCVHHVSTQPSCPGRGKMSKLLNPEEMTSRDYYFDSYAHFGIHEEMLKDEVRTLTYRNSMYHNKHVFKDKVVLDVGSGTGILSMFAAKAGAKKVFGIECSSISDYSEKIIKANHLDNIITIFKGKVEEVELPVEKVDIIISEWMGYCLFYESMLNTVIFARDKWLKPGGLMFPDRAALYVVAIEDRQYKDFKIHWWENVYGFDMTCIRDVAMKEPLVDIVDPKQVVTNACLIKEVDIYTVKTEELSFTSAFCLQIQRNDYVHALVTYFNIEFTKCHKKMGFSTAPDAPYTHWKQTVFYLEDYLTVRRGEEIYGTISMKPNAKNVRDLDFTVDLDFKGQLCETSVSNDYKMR
# measurement.description: PRMT8 biochemical assay (3H-SAM Flashplate, histone H4 31-45 peptide)
# test.conditions: 1.5 nM PRMT8, 30 min preincubation, 150 nM peptide
readout: IC50 (µM)

| compound | measured.result |
| --- | --- |
| CNCCN(C)Cc1c[nH]nc1C1CCC2(CC1)CC(C)(C)OC2=O (stereo not drawn) | 0.0157 |

[I] CNCCN(C)Cc1ccnn1[C@H]1CC[C@]2(CC1)CC(C)(C)CO2
[II] CNCCN(C)Cc1c[nH]nc1C1CCC(COCC(C)C)(COCC(C)C)CC1
Enquiry: // task: argmin of IC50 over [ I , II ] Selection: enter the item's label.
Return: I

[a] CNCCN(C)Cc1nocc1[C@H]1CC[C@]2(CC1)CC(C)(C)CO2
[b] CNCCN(C)Cc1cn(C)nc1C1CCC(C)(C)[C@@H](C(=O)NCC(C)C)C1 (stereo partly drawn)
[c] Cc1[nH]nc(C2CCC3(CC2)CC(C)(C)CO3)c1CN(C)CCN (stereo not drawn)
Enquiry: Arrange these compounds by their IC50, starting with the largest number. Give your ranking as a list of the labels in the requested order.
Return: b, a, c

[A] CCC1(CC)C[C@]2(CC[C@@H](c3n[nH]cc3CN(C)CCNC)CC2)NC1=O
[B] CNCCN(C)Cc1ncsc1[C@H]1CC[C@@]2(CC1)CC(C)(C)CO2
Enquiry: // task: argmin of IC50 over [ A , B ] Selection: enter the item's label.
Return: B

====

# assay.target: PRMT1 (Homo sapiens, UniProt Q99873)
# Construct: host or cells: RKO cells
# Sequence (Q99873 whole entry): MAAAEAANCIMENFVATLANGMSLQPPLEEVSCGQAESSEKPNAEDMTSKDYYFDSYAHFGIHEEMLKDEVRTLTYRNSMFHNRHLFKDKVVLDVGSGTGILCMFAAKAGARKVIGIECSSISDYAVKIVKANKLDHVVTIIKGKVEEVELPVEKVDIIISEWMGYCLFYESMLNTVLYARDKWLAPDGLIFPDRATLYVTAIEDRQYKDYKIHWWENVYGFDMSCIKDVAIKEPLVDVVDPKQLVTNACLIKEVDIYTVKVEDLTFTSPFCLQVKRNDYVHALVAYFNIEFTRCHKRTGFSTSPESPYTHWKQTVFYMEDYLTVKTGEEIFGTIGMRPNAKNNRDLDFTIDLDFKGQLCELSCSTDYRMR
# measurement.description: RKO methylation assay, In Cell Western (ICW) for mono-methyl arginine and DNA content
# Type: cell-based
# test.conditions: RKO cells, 72 hours, mono-methyl arginine signal normalised to DRAQ5, percent activation
readout: PRMT1 RGG ICW EC30 (nM)

Sample records with PRMT1 RGG ICW EC30:
| molecule | PRMT1 RGG ICW EC30 (nM) |
| --- | --- |
| CN(C)CCN(C)Cc1c[nH]nc1[C@H]1CC[C@]2(CC1)CC(C)(C)CO2 | 622.8 |
| CN(CCN)Cc1c[nH]nc1[C@H]1CC[C@@]2(CC1)CC(C)(C)CO2 | 12.12 |

[1] CNCCN(C)Cc1c[nH]nc1C1=CCC(COCC(F)(F)F)CC1 (stereo not shown)
[2] CNCCN(C)Cc1c[nH]nc1[C@H]1CC[C@@]2(CCN(CCC(C)C)C2=O)CC1
Enquiry: // task: argmin of PRMT1 RGG ICW EC30 over [ 1 , 2 ] Selection: enter the item's label.
Return: 2

====

# assay.target: full-length human PRMT8 isoform 1 (Homo sapiens)
# measurement.description: PRMT8 biochemical assay (3H-SAM Flashplate, histone H4 31-45 peptide)
# test.conditions: 1.5 nM PRMT8, 30 min preincubation, 150 nM peptide
readout: IC50 (nM)

Sample records with IC50:
| structure.smiles.string | measurement.unit | IC50 |
| --- | --- | --- |
| CNCCN(C)Cc1n[nH]cc1[C@H]1CC[C@@]2(CC1)CC(C)(C)CO2 | nM | 16.2 |
| CNCCN(C)Cc1scnc1[C@H]1CC[C@]2(CC1)CC(C)(C)CO2 | nM | 24.2 |

[1] CN(C)CCN(C)Cc1c[nH]nc1[C@H]1CC[C@@]2(CC1)CC(C)(C)CO2
[2] CNCCN(C)Cc1nc(C)sc1[C@H]1CC[C@]2(CC1)CC(C)(C)CO2
Enquiry: // task: argmin of IC50 over [ 1 , 2 ] Selection: enter the item's label.
Return: 1
(1: 33.8 nM, 2: 49 nM)
